- Tested on: MCF7
- measurement.description: NCI tumour cell line growth inhibition, 48 h
The source made the active and inactive calls. No stated cut-off is given here; in the data, active = GI50 up to about 1.1 µM and inactive = higher.
Outcomes: YES (active), NO (inactive)

{"compound": "CN(C)C(=S)N/N=C\\C=N/NC(=S)N(C)C", "class.name": "YES"}
{"compound": "C[N+]1(C)C(c2ccccc2)C(=O)O[B@-]1(F)c1ccccc1 (some centres not stated)", "class.name": "NO"}
{"compound": "COC(=O)Cc1ccc2c(c1)Sc1ccc(CC(=O)OC)cc1N2C", "class.name": "NO"}
{"compound": "CC/C(N)=N\\NC(=O)OC(C)(C)C", "class.name": "NO"}
{"compound": "O=C(/C(=C(/Br)I)c1ccccc1)c1ccccc1", "class.name": "NO"}
{"compound": "CC1=NN2CCC(=O)N=C2S1", "class.name": "NO"}
{"compound": "COc1c2cc(C(C)(C)C)cc1Cc1cccc(c1OCc1cccc([N+](=O)[O-])c1)Cc1cc(C(C)(C)C)cc(c1OC)Cc1cccc(c1OCc1cccc([N+](=O)[O-])c1)Cc1cc(C(C)(C)C)cc(c1OC)Cc1cccc(c1OCc1cccc([N+](=O)[O-])c1)C2", "class.name": "NO"}
